All values here come from ChEMBL document CHEMBL4251632.

assay: Plasma concentration in Sprague-Dawley rat at 2 mg/kg, po administered as single dose measured after 1 hr by LC-MS/MS analysis; format: ADME, organism-based
endpoint.label: concentration at 1 h (ng/mL)

>>> print(df.to_string())
                              sample_smiles  measured_value
0  Fc1ccc(N2CCN(CCCc3c[nH]c4ccc(F)cc34)CC2)c(-c2ccccc2)c1            72.8

###

assay: Apparent volume of distribution during terminal phase in Sprague-Dawley rat at 2 mg/kg, po administered as single dose by LC-MS/MS analysis; type: ADME, organism-based; conditions: in vivo, read-out: Vz/F
endpoint.label: Vd/F (L/kg)

>>> print(df.to_string())
                              sample_smiles  measured_value
0  Fc1ccc(N2CCN(CCCc3c[nH]c4ccc(F)cc34)CC2)c(-c2ccccc2)c1            17.1

###

test: Plasma concentration in Sprague-Dawley rat at 0.5 mg/kg, iv administered as single dose measured after 30 mins by LC-MS/MS analysis; assay type: ADME, organism-based
endpoint.label: concentration at 0.5 h (ng/mL)

                              sample_smiles  measured_value
0  Fc1ccc(N2CCN(CCCc3c[nH]c4ccc(F)cc34)CC2)c(-c2ccccc2)c1            80.8

###

experiment: Plasma concentration in Sprague-Dawley rat at 0.5 mg/kg, iv administered as single dose measured after 1 hr by LC-MS/MS analysis; assay type: ADME, organism-based
endpoint.label: concentration at 1 h (ng/mL)

In [3]: df
Out[3]:
                              sample_smiles  measured_value
0  Fc1ccc(N2CCN(CCCc3c[nH]c4ccc(F)cc34)CC2)c(-c2ccccc2)c1            51.3

###

molecular target: Sodium-dependent serotonin transporter (Rattus norvegicus); assay: Inhibition of [3H]serotonin reuptake in rat brain synaptosomes SERT after 15 mins by TopCount scintillation counting method
Sequence (P31652 whole entry): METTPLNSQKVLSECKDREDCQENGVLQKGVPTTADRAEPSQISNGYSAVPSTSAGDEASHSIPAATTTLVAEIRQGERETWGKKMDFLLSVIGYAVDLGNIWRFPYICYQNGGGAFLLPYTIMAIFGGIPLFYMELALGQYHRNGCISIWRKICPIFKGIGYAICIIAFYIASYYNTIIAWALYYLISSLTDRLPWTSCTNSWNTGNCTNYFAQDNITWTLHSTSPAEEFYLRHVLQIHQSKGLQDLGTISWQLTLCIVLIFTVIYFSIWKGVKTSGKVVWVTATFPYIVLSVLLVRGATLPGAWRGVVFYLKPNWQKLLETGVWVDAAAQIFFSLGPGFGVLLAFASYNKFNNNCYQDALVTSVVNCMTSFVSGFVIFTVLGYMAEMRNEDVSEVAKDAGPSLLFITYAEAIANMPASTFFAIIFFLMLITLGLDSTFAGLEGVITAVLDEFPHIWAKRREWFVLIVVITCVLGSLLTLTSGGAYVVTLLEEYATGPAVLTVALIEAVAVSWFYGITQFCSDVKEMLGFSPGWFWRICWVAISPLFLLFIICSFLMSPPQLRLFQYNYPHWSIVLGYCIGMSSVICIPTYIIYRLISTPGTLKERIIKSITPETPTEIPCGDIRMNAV
As shown below, each of these compounds has a reported IC50 value.
endpoint.label: IC50 (nM)

                              sample_smiles  display_unit  measured_value
0  Fc1cccc(-c2ccccc2N2CCN(CCc3c[nH]c4ccc(F)cc34)CC2)c1            nM             150
1  Cc1cccc(-c2ccccc2N2CCN(CCc3c[nH]c4ccc(F)cc34)CC2)c1            nM             160
2  Fc1ccc2[nH]cc(CCN3CCN(c4ccccc4-c4ccccc4F)CC3)c2c1            nM              96

###

molecular target: UniProt:P34969; assay: Displacement of [3H]LSD from recombinant human 5-HT7 receptor expressed in CHO cell membranes after 120 mins by TopCount scintillation counting method
pKi: −log10 of the molar value.
As shown below, each of these compounds has a reported pKi value.
endpoint.label: pKi

                              sample_smiles  endpoint_label  measured_value
0  Fc1cccc(-c2ccccc2N2CCN(CCCc3c[nH]c4ccc(F)cc34)CC2)c1             pKi            8.96
1  Fc1ccc2[nH]cc(CCCN3CCN(c4ccccc4-c4ccccc4)CC3)c2c1             pKi            8.96
2  Fc1cccc(-c2c(F)cccc2N2CCN(CCCc3c[nH]c4ccc(F)cc34)CC2)c1             pKi            9.26
3  Fc1cccc(-c2ccccc2N2CCN(CCc3c[nH]c4ccc(F)cc34)CC2)c1             pKi            9.10

###

As shown below, each of these compounds has a reported inhibition value.
biological target: 5-hydroxytryptamine receptor 7 (Homo sapiens); assay: Displacement of [3H]LSD from recombinant human 5-HT7 receptor expressed in CHO cell membranes at 10 uM after 120 mins by TopCount scintillation counting method relative to control
Sequence (P34969 whole entry): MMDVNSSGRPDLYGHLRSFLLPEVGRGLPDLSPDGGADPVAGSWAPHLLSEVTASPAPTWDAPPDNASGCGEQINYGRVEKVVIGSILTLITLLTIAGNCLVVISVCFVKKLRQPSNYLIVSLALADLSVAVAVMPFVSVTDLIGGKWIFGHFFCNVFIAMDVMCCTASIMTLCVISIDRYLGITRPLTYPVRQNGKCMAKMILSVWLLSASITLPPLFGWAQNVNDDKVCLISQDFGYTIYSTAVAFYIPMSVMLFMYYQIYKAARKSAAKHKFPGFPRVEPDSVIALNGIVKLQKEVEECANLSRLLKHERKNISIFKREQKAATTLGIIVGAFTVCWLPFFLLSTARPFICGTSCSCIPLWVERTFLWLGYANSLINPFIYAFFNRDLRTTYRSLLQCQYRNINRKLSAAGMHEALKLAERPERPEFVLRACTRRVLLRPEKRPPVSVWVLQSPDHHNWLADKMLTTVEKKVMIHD
endpoint.label: inhibition

>>> print(df.to_string())
                              sample_smiles                               system_name  endpoint_label  measured_value
0  Fc1cccc(-c2ccccc2N2CCN(CCCc3c[nH]c4ccc(F)cc34)CC2)c1  5-hydroxytryptamine receptor 7 (Homo sapiens)      inhibition           > 90%
1  Fc1cccc(-c2ccc(F)cc2N2CCN(CCCc3c[nH]c4ccc(F)cc34)CC2)c1  5-hydroxytryptamine receptor 7 (Homo sapiens)      inhibition           > 90%
2  Fc1cccc(-c2c(F)cccc2N2CCN(CCCc3c[nH]c4ccc(F)cc34)CC2)c1  5-hydroxytryptamine receptor 7 (Homo sapiens)      inhibition           > 90%
